# pIC50 annotations
Target or system: human orexin-2 receptor (Homo sapiens (Human), UniProt O43614)
Sequence (O43614 whole entry): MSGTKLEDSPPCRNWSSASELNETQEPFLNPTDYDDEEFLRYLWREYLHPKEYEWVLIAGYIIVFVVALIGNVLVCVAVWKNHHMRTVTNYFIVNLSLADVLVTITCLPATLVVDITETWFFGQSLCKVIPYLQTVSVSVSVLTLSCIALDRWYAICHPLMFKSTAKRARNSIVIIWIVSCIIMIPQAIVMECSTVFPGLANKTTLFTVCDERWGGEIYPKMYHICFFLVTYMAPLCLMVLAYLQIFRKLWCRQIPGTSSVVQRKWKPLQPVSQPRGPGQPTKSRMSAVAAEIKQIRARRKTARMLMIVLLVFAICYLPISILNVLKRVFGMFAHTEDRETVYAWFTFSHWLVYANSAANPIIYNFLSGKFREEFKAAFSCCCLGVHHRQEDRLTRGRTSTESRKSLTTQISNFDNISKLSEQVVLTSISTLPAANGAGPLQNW
Test name: FLIPR Ca2+ Flux Assay, CHO cells expressing human orexin-2 receptor
Experimental conditions: agonist 70 pM Ala-6,12 human orexin-A, read-out: hOX2R FLIPR IC50
Scale: negative log10 of molar concentration, which is what pIC50 denotes.

Some compounds with recorded pIC50:
[
  {
    "Mol": "Cc1c(C#N)ccnc1N[C@@H]1CC[C@@H](C)N(C(=O)c2ccccc2-n2nccn2)C1",
    "Test readout": "pIC50",
    "Obs value": 8.15
  },
  {
    "Mol": "C[C@@H]1CC[C@@H](Nc2cc(C#N)ccn2)CN1C(=O)c1ccccc1-n1nccn1",
    "Test readout": "pIC50",
    "Obs value": 7.54
  },
  {
    "Mol": "Cc1c(C#N)ccnc1N[C@@H]1CC[C@@H](C)N(C(=O)c2ccccc2-n2ncnn2)C1",
    "Test readout": "pIC50",
    "Obs value": 8.15
  }
]

Lab book: pIC50 of COc1c(C#N)ccnc1N(C)[C@@H]1CC[C@@H](C)N(C(=O)c2ccsc2-c2ncccn2)C1 noted as 7.47

For reference, reported pIC50 for COc1c(C#N)ccnc1N[C@@H]1CC[C@@H](C)N(C(=O)c2ccsc2-n2nccn2)C1 stands at 7.96

Value of measured pIC50 for the entry C[C@@H]1CC[C@@H](N(C)c2cc(C#N)ccn2)CN1C(=O)c1ccccc1-n1nccn1 : 7.70
